System: Botrytis cinerea
Measurement Notes: Antifungal activity against Botryotinia fuckeliana assessed as growth inhibition at 0.3 to 30 uM after 48 to 72 hr by 96-well microdilution broth assay
Type: functional, organism-based
The source made the active and inactive calls. No cut-off for these calls is given here.

# Smiles Input, growth inhibition (GI)
data = [
    ("O=C(CCC1CCCCC1)N/N=C\\c1ccc(Cl)cc1", "inactive"),
    ("COc1ccc(/C=N\\NC(=O)CCC2CCCCC2)cc1", "inactive"),
    ("O=C(CCC1CCCCC1)N/N=C\\c1ccc([N+](=O)[O-])cc1", "inactive"),
    ("CC(C)c1ccc(/C=N\\NC(=O)CCC2CCCCC2)cc1", "inactive"),
    ("CN(C)c1ccc(/C=N\\NC(=O)CCC2CCCCC2)cc1", "inactive"),
    ("O=C(CCC1CCCCC1)N/N=C\\c1ccccc1", "inactive"),
    ("O=C(CCC1CCCCC1)N/N=C\\c1ccc(O)cc1", "inactive"),
    ("Cc1ccc(/C=N\\NC(=O)CCC2CCCCC2)cc1", "inactive"),
    ("O=C(CCC1CCCCC1)N/N=C\\c1ccc(Br)cc1", "inactive"),
    ("O=C(CCC1CCCCC1)N/N=C\\c1ccc(F)cc1", "inactive"),
]
